target: human PAH with the R408W mutation (Homo sapiens, UniProt P00439, R408W); construct: expressed in transfected cells; experiment: Cell Based Phenylalanine Flux Assay; settings: A375 R408W cells, 24 hrs with compound, then 20 μM sepiapterin and 800 μM 13C9,15N-Phenylalanine for 4 hours; 13C-Tyrosine by LC-MS; average where tested multiple times; read-out: AC50
Sequence (P00439 whole entry R408W): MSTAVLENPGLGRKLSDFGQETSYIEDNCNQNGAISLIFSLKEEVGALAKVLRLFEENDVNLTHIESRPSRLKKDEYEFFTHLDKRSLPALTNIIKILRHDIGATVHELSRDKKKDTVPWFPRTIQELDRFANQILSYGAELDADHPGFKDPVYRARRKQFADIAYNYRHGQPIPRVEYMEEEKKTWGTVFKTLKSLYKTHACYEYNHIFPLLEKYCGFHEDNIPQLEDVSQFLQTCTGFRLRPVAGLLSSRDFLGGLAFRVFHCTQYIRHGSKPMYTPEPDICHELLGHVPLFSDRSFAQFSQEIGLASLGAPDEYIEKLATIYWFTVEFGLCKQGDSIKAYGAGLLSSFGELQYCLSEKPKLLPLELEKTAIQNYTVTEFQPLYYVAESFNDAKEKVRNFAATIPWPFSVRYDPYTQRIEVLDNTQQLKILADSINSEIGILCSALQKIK
PROPERTY_LABEL: AC50

COMPOUND: COCc1ncc(C(=O)N2CCc3[nH]cnc3[C@H]2c2cn3ccccc3n2)s1 (single isomer, unassigned)
AC50: > 5 µM

COMPOUND: CC(C)(O)c1ccc2c(C(=O)N3CCc4[nH]cnc4[C@H]3c3cc4ccccc4cn3)cnn2c1 (single isomer, unassigned)
AC50: 1 to 5 µM

COMPOUND: CN(C)Cc1ccc2c(C(=O)N3CC4(CC4)c4[nH]cnc4C3c3cc4ccccc4cn3)cnn2c1 (stereo not shown)
AC50: 1 to 5 µM

COMPOUND: O=C(c1nnc(-c2ccccn2)o1)N1CCc2[nH]cnc2C1c1cn2ccccc2n1 (stereo not shown)
AC50: 1 to 5 µM

COMPOUND: Cc1nc(CCN2CC(F)C2)oc1C(=O)N1CCc2[nH]cnc2C1c1ccc2ccccc2n1 (stereo not shown)
AC50: 1 to 5 µM

COMPOUND: FC(F)c1nnc(N2CCc3[nH]cnc3[C@H]2c2ccc3ccccc3n2)o1 (single isomer, unassigned)
AC50: > 5 µM

// query AC50 value for entry CC(C)(F)c1ncc(C(=O)N2CCc3[nH]cnc3C2c2cn3ccccc3n2)o1 (stereo not shown)
1 to 5 µM

Can you handle Cn1nc(C(=O)N2CCc3[nH]cnc3C2c2ccc3ccccc3n2)c2ccccc21 (stereo not shown) next?
1 to 5 µM

Would you mind doing O=C(c1ocnc1C1CC1)N1CCCc2[nH]cnc2C1c1cc2ccccc2cn1 (stereo not shown) as well?
> 5 µM

Next up: Cn1nc(C(C)(C)O)cc1C(=O)N1CCc2[nH]cnc2C1c1ccc2ccccc2n1 (stereo not shown)
> 5 µM

// query: O=C(c1oc(-c2ccccn2)nc1C1CC1)N1CCCc2[nH]cnc2C1c1ccc2ccccc2n1 (stereo not shown)
1 to 5 µM

Then what about the compound Cc1nc(N2CCC(F)CC2)oc1C(=O)N1CCc2[nH]cnc2C1c1ccc2ccccc2n1 (stereo not shown) ?
> 5 µM

Now give it for CN(C)Cc1ccc2c(C(=O)N3CCc4[nH]cnc4C3c3cc4ccccc4nn3)cnn2c1 (stereo not shown) too.
> 5 µM

Repeat for the following compound: Cc1nc(C(C)(C)F)oc1C(=O)N1CCc2[nH]cnc2C1c1cc2ccccc2cn1 (stereo not shown)
1 to 5 µM

----------
In this section, each of the compounds is paired with its reported AC50.
target: human PAH with the R408W mutation (Homo sapiens, UniProt P00439, R408W); construct: expressed in transfected cells; assay: Cell Based Phenylalanine Flux Assay; conditions: A375 R408W cells, 24 hrs with compound, then 20 μM sepiapterin and 800 μM 13C9,15N-Phenylalanine for 4 hours; 13C-Tyrosine by LC-MS; average where tested multiple times; read-out: AC50

Fill in the recorded AC50 for this compound, with human PAH with the R408W mutation (Homo sapiens, UniProt P00439, R408W) as test system: O=C(c1cncs1)N1CCc2[nH]cnc2C1c1cn2ccccc2n1 (stereo not shown)
1 to 5 µM

Now try COCc1ccc2c(C(=O)N3CC(C)c4[nH]cnc4C3c3cc4ccccc4cn3)cnn2c1 [(4S, 7S) diastereomer of 3-[5-[6-(methoxymethyl)pyrazolo[1,5] .
1 to 5 µM

Check Cc1nnc(C(=O)N2CCc3[nH]cnc3C2c2ncc3ccccc3n2)o1 (stereo not shown) too.
> 5 µM

Please give the result for `C[C@H](O)c1nnc(C(=O)N2CCc3[nH]cnc3[C@H]2c2cc3ccccc3cn2)o1` too.
1 to 5 µM
